The reported numbers originate from PubChem BioAssay (NCI).

Test system: SF-539 CNS
Assay procedure: NCI-60 one-dose screen, 48 h (100 = growth as untreated, 0 = no growth, -100 = all killed)
Measurement parameters: 10 µM unless noted
Description: Cells are grown in 96 well plates and exposed to the test compound for 48 hours. Compounds are tested at a single concentration, which is 10^-5 M for most compounds. The reported endpoint is percent growth (GI% or GIPRCNT), where numbers from 0 - 100% represent growth inhibition, and numbers from -100% - 0 represent cell death. For example, a value of 40 represents 60% growth inhibition. A value of 0 means no net growth occurred over the course of the experiment. […]
This is part of a sample that, as a whole, favours compounds with a hit. Of some 83,000 tested, about 20% had one in any assay.
Measurement name: growth (%)

- CC1=C(C)C(=O)C(NCCN2CCOCC2)=C(Br)C1=O: 32.1
- C[C@H]1[C@@H](CC(=O)N[C@@H](Cc2coc3ccccc23)B(O)O)O[C@@H]2OC3(C)CC[C@H]4[C@H](C)CC[C@@H]1[C@@]24O3: -91.6
- Cc1ccc(N=Nc2c(N)nn3c(-c4cc5cc(Br)ccc5oc4=O)ccnc23)cc1: -46.5
- Cc1ccc(C(=O)Nc2cccc(C(=O)NC(=S)Nc3ccc(S(N)(=O)=O)cc3)c2)cc1: 76.4
- Oc1ccc(Cl)c(Nc2nc(SCCN3CCOCC3)nc3c2cnn3CC(Cl)c2ccc(Br)cc2)c1 (stereo not drawn): 29.2
- Cc1nc(N)ncc1-c1ccc2ncnc(N3CCc4cc(F)c(Cl)cc43)c2c1: 67
- COc1ccc2[nH]c(=O)c(CSc3ccccc3Nc3nccc(-c4ccc(Cl)cc4)n3)cc2c1: 21.7
- N#Cc1ccc(C(=O)NNC(=O)CSc2nc3sc4c(c3c(=O)n2-c2ccc(Cl)cc2)CCCC4)cc1: -43.9
- N#Cc1c(-c2ccc(F)cc2)nc(SCc2ccc(F)cc2)nc1N1CCNCC1: -98.9
- CCCn1c(NC(=O)c2cccc(C(N)=O)c2)nc2ccc(CN3CCCCC3)cc21: 106
- COc1cc(C2CC(c3ccc(S(=O)(=O)NCCNc4nc(N(C)C)nc(N5CCOCC5)n4)cc3)=Nc3c(N)nc(N)nc3N2)cc(OC)c1OC (stereo not drawn): 96.8
- Cc1ccc(C(=O)Nc2cc(-c3ccccc3)cc(C(F)(F)F)c2)cc1C#Cc1cnc2cccnn12: 63.8
- O=CNc1cccc(-n2cnc3cc(-c4ccc(O)cc4)ccc32)c1: -6.56
- COc1cc(C2CC(c3cc(OC)c(OC)c(OC)c3)=Nc3c(N)nc(N)nc3N2)ccc1Oc1nc(Nc2ccc(F)cc2)nc(N(C)C)n1 (stereo not drawn): 62
- CC1CCc2c(sc3nc(SCC(=O)c4cccc(Br)c4)n(-c4ccccc4)c(=O)c23)C1 (stereo not drawn): 18.3
- CCOc1ccc2[nH]c(=O)c(C(c3nnnn3CC3CCCO3)N3CCN(Cc4ccccc4)CC3)cc2c1 (stereo not drawn): 57.6
- CCOC(=O)/C(F)=C/C1CC1C1CCN(C(=O)OC(C)(C)C)CC1 (stereo not drawn): 103
- Nc1nc2cc(-c3ccc4ncnc(NCc5ccccc5)c4c3)ccc2o1: -86.5

---

System: M14 melanoma
Assay procedure: NCI-60 one-dose screen, 48 h
Measurement parameters: 10 µM unless noted
About 83,000 compounds went through this panel and 20% of them were active in at least one assay; those are over-represented in the sample as a whole. Activity calls are given as the source filed them. How the source made its calls: active means growth percent below 10; inactive means the rest.
Labels: label 1 = active, label 0 = inactive

- COc1ccc(/C=C/C(=O)c2ccc(OC)c(S(N)(=O)=O)c2)c(C(F)(F)F)c1: label 1
- COc1cc(CNC(=O)[C@]23CCC(C)(C)CC2C2=CCC4[C@@]5(C)CCC(OC(C)=O)C(C)(C)C5CC[C@@]4(C)[C@]2(C)CC3)ccc1OCc1cn(-c2ccc(Cl)cc2Cl)nn1 (stereo partly drawn): label 0
- Fc1ccc(N2CC(Cn3c(C(F)(F)F)cc4c(Cl)ncnc43)C2)c(F)c1: label 1
- NC(=O)c1ccc(-c2ccc3ncnc(N4CCc5cc(F)c(Cl)cc54)c3c2)cn1: label 0
- CCN(C(=O)CN1C(=O)/C(=C/c2ccco2)SC1=S)C1CCS(=O)(=O)C1 (stereo not drawn): label 0
- CC1=C(C)C(=O)C(N2CCSCC2)=CC1=O: label 0
- O=C(Nc1ccc(-c2ccc3c(c2)NC(=O)/C3=C\c2ccc[nH]2)cc1)Nc1cccc(Cl)c1: label 1
- Nc1cc2ccccc2c(=O)n1NC(=O)c1ccc(Br)cc1: label 0
- NS(=O)(=O)c1ccc(Nc2nc(N/N=C/c3cc(Br)c(O)c(Br)c3)nc(Nc3ccccc3)n2)cc1: label 0
- O=C(O)CC1S/C(=N/N=C/c2nc3ccccc3s2)NC1=O (stereo not drawn): label 0
- COc1cc(NC(=O)CSc2nnc(-c3ccc(-c4nc5ccc(Cl)cc5[nH]4)cc3)o2)cc(OC)c1OC: label 0
- COc1ccc(-c2nc3ccc(-c4nnc(SCC(=O)Nc5ccc(/C(C)=N\O)cc5)o4)cc3[nH]2)cc1: label 0
- CCCCCCCCc1ccc(C(=O)Nc2ccc(C)cc2C(=O)O)cc1: label 0
- COc1ccc2[nH]c(O)c(N=NC(=O)c3ccc4nc(-c5ccc(Cl)cc5)[nH]c4c3)c2c1: label 0
- O=Cc1cncc(-c2ccc3ncnc(N4CCc5cc(F)c(Cl)cc54)c3c2)c1: label 0
- Cc1ccc(O)cc1Nc1nc(SCCN2CCOCC2)nc2c1cnn2CC(Cl)c1ccc(Br)cc1 (stereo not drawn): label 1
- CN(C)c1nc(NCCNS(=O)(=O)c2ccc(C(=O)/C=C/c3ccc(Cl)cc3)cc2)nc(N2CCOCC2)n1: label 1
- Cc1ccc2nc(COc3ccc(C(=O)NNC(=O)Nc4ccc(Cl)c(C(F)(F)F)c4)cc3)[nH]c2c1: label 0
